molecular target: MMP 1 (Homo sapiens, UniProt P03956); construct: human recombinant fibroblast collagenase (truncated, mw= 18,828, WAR, Radnor); assay: In Vitro Collagenase Assay; type: biochemical; conditions: read-out: MMP 1 % inhibition at 1 micromolar; 1 micromolar; human recombinant fibroblast collagenase
endpointName: inhibition at 1 µM
Write the numeric value and follow it with the unit.

CCCCC(C(=O)NO)S(=O)(=O)c1ccc(OC)cc1 (centres unmarked)    8%

Please go through the list and note inhibition at 1 µM for each molecule.
1. Cc1occc1S(=O)(=O)C(C)(Cc1ccc(OCCN2CCCCC2)cc1)C(=O)NO (centres unmarked)
2. CCCCN1CCC(C(=O)NO)(S(=O)(=O)c2ccc(OC)cc2)CC1
3. CCCC(CCC)(C(=O)NO)S(=O)(=O)c1ccc(OC)cc1
4. COc1ccc(S(=O)(=O)C(CCN(C(C)C)C(C)C)(Cc2ccccc2)C(=O)NO)cc1 (centres unmarked)

["47.1%", "56.3%", "30.2%", "40.9%"]

====

Target: MMP 1 (Homo sapiens, UniProt P03956)
Construct: human recombinant fibroblast collagenase (truncated, mw= 18,828, WAR, Radnor)
Sequence (P03956 100-269 limits assumed): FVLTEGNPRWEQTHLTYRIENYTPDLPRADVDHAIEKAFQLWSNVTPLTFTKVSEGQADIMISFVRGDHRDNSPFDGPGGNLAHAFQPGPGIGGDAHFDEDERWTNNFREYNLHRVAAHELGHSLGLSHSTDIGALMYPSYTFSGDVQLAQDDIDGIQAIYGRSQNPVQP
Experiment: In Vitro Collagenase Assay
Assay type: biochemical
endpointName: IC50 (nM)
Answers are plain numbers, in nM.

Quick one: IC50 for COc1ccc(S(=O)(=O)C2(C(=O)NO)CCN(Cc3ccc(OCCN4CCCCC4)cc3)CC2)cc1 ? 393

====

For each record, write down the corresponding pIC50.
Molecular target: MMP 1 (Homo sapiens)
Construct: human recombinant fibroblast collagenase (truncated, mw= 18,828, WAR, Radnor)
Sequence (P03956 100-269 limits assumed): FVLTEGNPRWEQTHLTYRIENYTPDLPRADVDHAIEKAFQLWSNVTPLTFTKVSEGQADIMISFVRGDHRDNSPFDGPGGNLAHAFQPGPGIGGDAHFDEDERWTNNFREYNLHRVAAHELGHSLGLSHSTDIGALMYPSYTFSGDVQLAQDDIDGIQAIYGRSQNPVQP
Assay: In Vitro Collagenase Assay
Assay type: biochemical
Settings: human recombinant fibroblast collagenase; read-out: MMP 1 IC 50
One number for each entry, as −log10 of the molar value.

Example compounds with recorded pIC50:
COc1ccc(S(=O)(=O)C2(C(=O)NO)CCCC2)cc1    6.96
COc1ccc(S(=O)(=O)C2(C(=O)NO)CCN(Cc3ccc(C)cc3)CC2)cc1    6.31
CCN(CC)CCOc1ccc(CC(C)(C(=O)NO)S(=O)(=O)c2ccc(-c3ccco3)cc2)cc1 (centres unmarked)    7.86
COc1ccc(S(=O)(=O)C(C)(Cc2ccc(OCCCN3CCN(c4cccc(Cl)c4)CC3)cc2)C(=O)NO)cc1 (centres unmarked)    6.23
CCC(Cc1ccc(OCCN2CCCCC2)cc1)(C(=O)NO)S(=O)(=O)c1ccc(OC)cc1 (centres unmarked)    6.28

Please go through the list and note pIC50 for each compound.
1. COc1ccc(S(=O)(=O)C(C/C=C(\C)CCC=C(C)C)(Cc2ccc(OCCN3CCOCC3)cc2)C(=O)NO)cc1 (centres unmarked)
2. COc1ccc(S(=O)(=O)C(CCCc2ccccc2)(CCCc2ccccc2)C(=O)NO)cc1
3. COc1ccc(S(=O)(=O)C(Cc2cccnc2)(CC2CCCCC2)C(=O)NO)cc1 (centres unmarked)
4. COc1ccc(CCN2CCC(C(=O)NO)(S(=O)(=O)c3ccc(OC)cc3)CC2)cc1
5. COc1ccc([S+]([O-])C(C(=O)NO)C(C)C)cc1 (centres unmarked)
6. COc1ccc(S(=O)(=O)C(Cc2cccnc2)(CC(C)C)C(=O)NO)cc1 (centres unmarked)

1. 6.52
2. 6.59
3. 6.00
4. 6.18
5. 6.07
6. 5.80

Please go through the list and note pIC50 for each compound.
1. C#CCC(CC#C)(C(=O)NO)S(=O)(=O)c1ccc(OC)cc1
2. COc1ccc(S(=O)(=O)C(C)(Cc2ccc(Br)cc2)C(=O)NO)cc1 (centres unmarked)
3. COc1ccc(S(=O)(=O)C2(C(=O)NO)CCN(Cc3ccc(Cl)c(Cl)c3)CC2)cc1
4. COc1ccc(S(=O)(=O)C(C)(Cc2ccccc2Br)C(=O)NO)cc1 (centres unmarked)
5. COc1ccc(S(=O)(=O)C(C)(CCCCN2C(=O)c3ccccc3C2=O)C(=O)NO)cc1 (centres unmarked)
6. COc1ccc(S(=O)(=O)C2(C(=O)NO)CCN(CCCOc3ccccc3)CC2)cc1

6.52
6.75
6.35
6.52
6.79
5.92

====

biological target: MMP 9 (Homo sapiens); construct: from tissue; host or cells: human neutrophils; test: In Vitro Gelatinase Assay; assay type: biochemical; settings: human neutrophil gelatinase B; read-out: MMP 9 IC 50
Sequence (P14780 94-707): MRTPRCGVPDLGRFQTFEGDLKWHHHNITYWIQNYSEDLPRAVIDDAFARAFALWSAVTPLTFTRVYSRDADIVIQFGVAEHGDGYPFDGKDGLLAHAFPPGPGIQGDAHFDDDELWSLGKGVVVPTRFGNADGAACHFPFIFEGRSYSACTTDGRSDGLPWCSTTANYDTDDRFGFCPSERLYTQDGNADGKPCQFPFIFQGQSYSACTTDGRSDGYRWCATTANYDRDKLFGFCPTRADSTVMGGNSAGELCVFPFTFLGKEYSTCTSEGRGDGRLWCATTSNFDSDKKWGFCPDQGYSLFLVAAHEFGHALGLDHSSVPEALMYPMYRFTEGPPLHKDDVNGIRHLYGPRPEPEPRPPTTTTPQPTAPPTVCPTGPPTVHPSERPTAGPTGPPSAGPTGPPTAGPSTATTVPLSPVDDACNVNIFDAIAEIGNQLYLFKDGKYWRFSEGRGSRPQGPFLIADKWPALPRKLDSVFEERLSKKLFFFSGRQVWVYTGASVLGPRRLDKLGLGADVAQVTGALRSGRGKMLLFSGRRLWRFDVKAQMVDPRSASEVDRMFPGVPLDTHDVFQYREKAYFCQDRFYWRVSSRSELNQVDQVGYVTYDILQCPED
pIC50: −log10 of the molar value.
Returns one of 1.0 or 0.0; 1.0 when pIC50 is >= 8.

// below: answered compounds
COc1ccc(S(=O)(=O)C(CCCc2ccccc2)(CCCc2ccccc2)C(=O)NO)cc1    0.0
COc1ccc(S(=O)(=O)C2(C(=O)NO)CCN(C(C)(C)C)CC2)cc1    0.0

Now for another entry.
Reported pIC50 reaches at least 8 for CCN(CC)CCOc1ccc(CC(C)(C(=O)NO)S(=O)(=O)c2ccc(-c3ccco3)cc2)cc1 (centres unmarked) ? 1.0

====

biological target: MMP 9 (Homo sapiens); construct: from tissue; host or cells: human neutrophils; assay: In Vitro Gelatinase Assay; type: biochemical; conditions: human neutrophil gelatinase B; read-out: MMP 9 IC 50
We label by threshold. Values of IC50 strictly beneath 30 nM are 1. Values of 30 nM and up are -1.

// below: answered compounds
COc1ccc(S(=O)(=O)C2(C(=O)NO)CCCC2)cc1 [Example 54]    -1
COc1ccc(S(=O)(=O)C(C)(Cc2ccc(-c3ccccc3)cc2)C(=O)NO)cc1 (stereo not shown) [Example 14]    1
COc1ccc(S(=O)(=O)C(Cc2cccnc2)(CC2CCCCC2)C(=O)NO)cc1 (stereo not shown) [Example 65]    -1

State whether 30 nM exceeds IC50 recorded for CCCCC(Cc1ccc(OCCN(CC)CC)cc1)(C(=O)NO)S(=O)(=O)c1ccc(OC)cc1 (stereo not shown) [Example 27] . -1

Same lookup for COc1ccc(S(=O)(=O)C(C)(CC=C(C)C)C(=O)NO)cc1 (stereo not shown) [Example 13] , please. 1

Same lookup for CCCCC[C@H](C(=O)NO)[S@+]([O-])c1ccc(OC)cc1 (stereo in doubt) [Example 81a] , please. -1

Same lookup for CCCCC[C@@H](C(=O)NO)[S@@+]([O-])c1ccc(OC)cc1 (stereo in doubt) [Example 81b] , please. -1

====

biological target: MMP 13 (Homo sapiens); test: MMP 13 inhibition (IC50 / manual assay; method not described); format: biochemical; conditions: read-out: MMP 13 IC 50
pIC50: −log10 of the molar value.
Returns one of t or f; t when pIC50 is >= 8.

COc1ccc(S(=O)(=O)C2(C(=O)NO)CCN(Cc3ccc(OCCN4CCCCC4)cc3)CC2)cc1    t
CCCC(Cc1ccc(OCCN2CCCCCC2)cc1)(C(=O)NO)S(=O)(=O)c1ccc(OC)cc1 (centres unmarked)    t
CCN(CC)CCOc1cccc(CC(C)(C(=O)NO)S(=O)(=O)c2ccc(OC)cc2)c1 (centres unmarked)    t

Reported pIC50 reaches at least 8 for C#CCC(Cc1cccnc1)(C(=O)NO)S(=O)(=O)c1ccc(OC)cc1 (centres unmarked) ? f

Same lookup for COc1ccc(S(=O)(=O)C(CCC(C)C)(Cc2cccnc2)C(=O)NO)cc1 (centres unmarked) , please. f

Same lookup for CCCCC(Cc1ccc(OCCN(CC)CC)cc1)(C(=O)NO)S(=O)(=O)c1ccc(OC)cc1 (centres unmarked) , please. f

Same lookup for COc1ccc(S(=O)(=O)C(C)(Cc2cccc(OCCN3CCOCC3)c2)C(=O)NO)cc1 (centres unmarked) , please. t

Same lookup for CCC(Cc1ccc(OCCN2CCCCC2)cc1)(C(=O)NO)S(=O)(=O)c1ccc(OC)cc1 (centres unmarked) , please. f

====

molecular target: MMP 9 (Homo sapiens); construct: from tissue; host or cells: human neutrophils; assay: In Vitro Gelatinase Assay; type: biochemical; settings: read-out: MMP 9 % inhibition at 1 micromolar; 1 micromolar; human neutrophil gelatinase B
endpointName: inhibition at 1 µM (%)
Numbers only, in %.

CC(Cc1ccccc1)(C(=O)NO)S(=O)(=O)c1cccs1 (centres unmarked)    79.1
COc1ccc(S(=O)(=O)C(CCN(C(C)C)C(C)C)(Cc2ccccc2)C(=O)NO)cc1 (centres unmarked)    25.6
COc1ccc(S(=O)(=O)C(C(=O)NO)C(C)C)cc1 (centres unmarked)    27.8
CCCCCCC(Sc1ccc(OC)cc1)C(=O)NO (centres unmarked)    31.6

Shift focus to the following entry.
What value of inhibition at 1 µM on MMP 9 (Homo sapiens) does CCCCCCC(Sc1nccn1C)C(=O)NO (centres unmarked) have? 35.2
